# Test system: SD rats
# PROTOCOL NOTES: animal or person
# Assay type: in vivo
# CONDITION DESCRIPTION: SD rats, single tail vein injection at 2×ED50; time from disappearance to recovery of righting reflex
ASSAY METRIC: 2ED50 duration

Solved cases below.
# MOLECULE, ASSAY METRIC, RESULT
data = [
    ("COc1cc(C)cc2c1-n1c(C)cnc1[C@H](CCC(=O)OC1(C(=O)OC(C)C)CC1)N=C2c1ccccn1", "2ED50 duration", "2.36 min"),
    ("Cc1cnc2n1-c1ccc(Br)cc1C(c1ccccn1)=N[C@H]2CCC(=O)OC(C)OC(=O)OC(C)C (stereo partly shown)", "2ED50 duration", "3.28 min"),
    ("CCC(CC)OC(=O)OC(OC(=O)CC[C@@H]1N=C(c2ccccn2)c2cc(Cl)c(OC(F)(F)F)cc2-n2c(C)cnc21)C1CC(F)C(CC)C1 (stereo partly shown)", "2ED50 duration", "4.28 min"),
    ("CCOC(=O)OCOC(=O)CC[C@@H]1N=C(c2ccccn2)c2cc(Br)ccc2-n2c(C)cnc21", "2ED50 duration", "3.20 min"),
]

Batch: 2ED50 duration for all items listed.
1. Cc1cnc2n1-c1cc(Br)c(Br)cc1C(c1ccccn1)=N[C@H]2CCC(=O)OCOC(=O)OC(C)(C)C
2. Cc1cnc2n1-c1cc(Br)c(Br)cc1C(c1ccccn1)=N[C@H]2CCC(=O)OCOC(=O)OC(C(C)C)C(C)C
3. COC(=O)C(CC(F)C(C)(C)OC(=O)CC[C@@H]1N=C(c2ccccn2)c2cc(Br)c(OC)cc2-n2c(C)cnc21)OC (stereo partly shown)

["5.03 min", "5.06 min", "3.18 min"]

====

Give measured 2ED50 duration for each item. Keep answers brief.
# Tested on: SD rats
# PROTOCOL NOTES: animal or person
# Type: in vivo
# CONDITION DESCRIPTION: SD rats, single tail vein injection at 2×ED50; time from disappearance to recovery of righting reflex
Give bare numbers, in min.

# COMPOUND, 2ED50 duration (min)
records = [
    ("CCOC(=O)C1(OC(=O)CC[C@@H]2N=C(c3ccccn3)c3cc(F)c(C)cc3-n3c(C)cnc32)CC1", 3.48),
]

Hey, quick one: what's 2ED50 duration for each of these?
1. COC(=O)OCOC(=O)CC[C@@H]1N=C(c2ccccn2)c2cc(Br)ccc2-n2c(C)cnc21
2. COC(=O)OCOC(=O)CC[C@@H]1N=C(c2ccccn2)c2cc(Br)c(Br)cc2-n2c(C)cnc21
3. COC1N(C)CC(CC(OC(=O)CC[C@@H]2N=C(c3ccccn3)c3cc(OC(F)(F)F)cc(C)c3-n3c(C)cnc32)OC(=O)OC(C(C)C)C(C)C)CN1C (some centres unmarked)
4. CCOC(=O)C(C)OC(=O)CC[C@@H]1N=C(c2ccccn2)c2cc(Br)ccc2-n2c(C)cnc21 (some centres unmarked)
5. CCOC(=O)OC(C)OC(=O)CC[C@@H]1N=C(c2ccccn2)c2cc(Br)c(Br)cc2-n2c(C)cnc21 (some centres unmarked)

[1.21, 5.05, 2.09, 1.21, 0.57]

Give 2ED50 duration for each of the items listed below.
1. COC(=O)C1(OC(=O)CC[C@@H]2N=C(c3ccccn3)c3cc(Cl)c(Br)cc3-n3c(C)cnc32)CC1
2. COC(=O)C(C)(C)OC(=O)CC[C@@H]1N=C(c2ccccn2)c2cc(Br)ccc2-n2c(C)cnc21
3. COC(=O)C(C)(C)OC(=O)CC[C@@H]1N=C(c2ccccn2)c2cc(Cl)c(Cl)c(Cl)c2-n2c(C)cnc21
4. COC(=O)C1(OC(=O)CC[C@@H]2N=C(c3ccccn3)c3ccc(C(F)(F)F)c(Cl)c3-n3c(C)cnc32)CC1
5. CCc1c(Br)cc2c(c1Cl)-n1c(C)cnc1[C@H](CCC(=O)OC(C)(CC)SC(=O)OC)N=C2c1ccccn1 (some centres unmarked)
6. COC(=O)OC(C)OC(=O)CC[C@@H]1N=C(c2ccccn2)c2cc(Br)ccc2-n2c(C)cnc21 (some centres unmarked)
7. COC(=O)C1(OC(=O)CC[C@@H]2N=C(c3ccccn3)c3cc(Cl)c(C(F)(F)F)cc3-n3c(C)cnc32)CC1 [Example 25]

1. 3.01
2. 1.08
3. 3.01
4. 3.43
5. 2.03
6. 3.18
7. 3.53

What does the record list as 2ED50 duration for COC(=O)C(OC(=O)CC[C@@H]1N=C(c2ccccn2)c2cc(Br)c(OC(F)(F)F)c(C)c2-n2c(C)cnc21)C1CCSC1 (some centres unmarked) ?
2.67

Origin of values: patent US12473291B2
